Just for reference, BindingDB's records for patent US20240343694 is where these values come from.

target: Receptor tyrosine-protein kinase erbB-2 [1-775,'YVMA',776-1255] (Homo sapiens)
Construct: 1-775,'YVMA',776-1255
protocol_notes: Inhibitory Activity of Compounds Against HER2 A775_G776insYVMA mutant enzyme
pIC50: −log10 of the molar value.
quantity_measured: pIC50

Example entries begin here.
compound_structure: CN(c1c(Cl)cccc1Nc1nc(Cl)ncc1Cl)S(C)(=O)=O
quantity_measured: pIC50
measured_value: 8.10
--
compound_structure: CCN(c1c(C)cccc1Nc1nc(Cl)ncc1Cl)S(C)(=O)=O
quantity_measured: pIC50
measured_value: 7.22
--
compound_structure: COc1cc(N2CCOCC2)c(N)cc1Nc1ncc(Cl)c(Nc2ccccc2NS(C)(=O)=O)n1
quantity_measured: pIC50
measured_value: 8.00

A. CS(=O)(=O)Nc1c(Nc2nc(Cl)ncc2Cl)ccc2nccnc12
B. C=C(F)C(=O)Nc1cc(N)c(OC)cc1N(C)CCN(C)C
### Prompt pIC50 comparison. Which is larger, A or B ? Give the label under which the chosen entry appears.
### Response A

a. O=S1(=O)CCCCN1c1ccccc1Nc1nc(Cl)ncc1Cl
b. C=CC(=O)Nc1cc(N)c(OC)cc1N(C)CCN(C(=O)OCc1ccccc1)C(C)C
### Prompt pIC50 comparison. Which is larger, a or b ? Give the label under which the chosen entry appears.
### Response a

---

target: Receptor tyrosine-protein kinase erbB-2 [1-775,'YVMA',776-1255] (Homo sapiens, UniProt P04626)
Construct: 1-775,'YVMA',776-1255
Sequence (P04626 with tags, fused parts or gaps INS775YVMA limits assumed): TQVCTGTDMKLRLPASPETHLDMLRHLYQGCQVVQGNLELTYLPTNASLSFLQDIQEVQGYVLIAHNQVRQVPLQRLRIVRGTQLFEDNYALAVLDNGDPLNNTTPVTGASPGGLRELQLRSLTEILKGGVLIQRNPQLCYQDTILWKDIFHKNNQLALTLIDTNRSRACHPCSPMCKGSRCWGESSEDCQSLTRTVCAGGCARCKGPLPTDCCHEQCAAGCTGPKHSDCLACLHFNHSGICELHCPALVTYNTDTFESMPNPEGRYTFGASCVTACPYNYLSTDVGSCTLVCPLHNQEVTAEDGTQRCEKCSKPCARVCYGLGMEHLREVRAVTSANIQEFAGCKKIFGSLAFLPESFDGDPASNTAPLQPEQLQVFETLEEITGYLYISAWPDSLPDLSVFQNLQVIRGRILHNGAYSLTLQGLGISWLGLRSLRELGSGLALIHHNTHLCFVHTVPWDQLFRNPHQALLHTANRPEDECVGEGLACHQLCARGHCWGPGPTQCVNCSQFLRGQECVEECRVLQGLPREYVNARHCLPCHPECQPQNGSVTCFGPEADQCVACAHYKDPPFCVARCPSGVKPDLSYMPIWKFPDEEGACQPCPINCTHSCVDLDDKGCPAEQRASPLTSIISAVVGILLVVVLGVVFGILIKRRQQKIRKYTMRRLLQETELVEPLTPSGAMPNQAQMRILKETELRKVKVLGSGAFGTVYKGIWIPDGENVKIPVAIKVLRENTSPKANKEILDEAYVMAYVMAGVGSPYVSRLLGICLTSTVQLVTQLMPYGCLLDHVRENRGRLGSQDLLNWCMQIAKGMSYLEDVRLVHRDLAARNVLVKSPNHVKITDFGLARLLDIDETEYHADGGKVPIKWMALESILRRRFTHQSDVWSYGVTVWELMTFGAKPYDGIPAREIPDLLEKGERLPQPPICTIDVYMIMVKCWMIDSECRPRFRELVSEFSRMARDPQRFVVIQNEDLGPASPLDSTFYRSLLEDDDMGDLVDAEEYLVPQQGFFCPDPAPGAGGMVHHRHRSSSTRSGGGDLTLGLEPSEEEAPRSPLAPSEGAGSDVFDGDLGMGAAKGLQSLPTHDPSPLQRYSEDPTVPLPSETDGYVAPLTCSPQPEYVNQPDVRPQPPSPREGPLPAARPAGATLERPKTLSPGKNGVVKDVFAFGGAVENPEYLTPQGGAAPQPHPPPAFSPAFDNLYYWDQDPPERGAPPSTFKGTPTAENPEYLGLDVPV
protocol_notes: Inhibitory Activity of Compounds Against HER2 A775_G776insYVMA mutant enzyme
pIC50: −log10 of the molar value.
quantity_measured: pIC50

Example entries begin here.
compound_structure: C=CC(=O)Nc1cc(N)c(OC)cc1N1CCC(N2CCN(C)CC2)CC1
pIC50: 8.00

compound_structure: C=CC(=O)Nc1cc(N)c(OC)cc1N1CCC(N(C)C)CC1
pIC50: 7.70

compound_structure: C=CC(=O)Nc1cc(N)c(OC)cc1N(C)CCN1CCN(C)CC1
pIC50: 9.00

compound_structure: CC(C)c1cccc(Nc2nc(Cl)ncc2Cl)c1N(C)S(C)(=O)=O
pIC50: 8.22

compound_structure: Cc1cccc(Nc2nc(Cl)ncc2Cl)c1NS(C)(=O)=O
pIC50: 8.70

compound_structure: CN(c1c(Nc2nc(Cl)ncc2Cl)ccc2nccnc12)S(C)(=O)=O
pIC50: 8.52

compound_structure: C=CC(=O)Nc1cc(N)c(OC)cc1OCCN1CCCC1
pIC50: 8.40

compound_structure: CCS(=O)(=O)N1CCc2cccc(Nc3nc(Cl)ncc3Cl)c21
pIC50: 8.30

1. CC(=O)N(C)c1c(C)cccc1Nc1nc(Cl)ncc1Cl
2. CCN(c1ccccc1Nc1nc(Cl)ncc1Cl)S(=O)(=O)CC
3. CC(C)OC(=O)c1cnc(Cl)nc1Nc1cccc2c1N(S(C)(=O)=O)CCC2
4. CCc1cccc(Nc2nc(Cl)ncc2Cl)c1NS(C)(=O)=O
### Prompt Sort ascending by pIC50. Kindly provide the labels arranged according to the requested ordering.
### Response 4, 1, 2, 3

---

IC50 values for the molecules below.
target: Epidermal growth factor receptor [DEL746-750] (Homo sapiens, UniProt P00533)
Sequence (P00533 with tags, fused parts or gaps DEL746-750 limits assumed, stated change not applied): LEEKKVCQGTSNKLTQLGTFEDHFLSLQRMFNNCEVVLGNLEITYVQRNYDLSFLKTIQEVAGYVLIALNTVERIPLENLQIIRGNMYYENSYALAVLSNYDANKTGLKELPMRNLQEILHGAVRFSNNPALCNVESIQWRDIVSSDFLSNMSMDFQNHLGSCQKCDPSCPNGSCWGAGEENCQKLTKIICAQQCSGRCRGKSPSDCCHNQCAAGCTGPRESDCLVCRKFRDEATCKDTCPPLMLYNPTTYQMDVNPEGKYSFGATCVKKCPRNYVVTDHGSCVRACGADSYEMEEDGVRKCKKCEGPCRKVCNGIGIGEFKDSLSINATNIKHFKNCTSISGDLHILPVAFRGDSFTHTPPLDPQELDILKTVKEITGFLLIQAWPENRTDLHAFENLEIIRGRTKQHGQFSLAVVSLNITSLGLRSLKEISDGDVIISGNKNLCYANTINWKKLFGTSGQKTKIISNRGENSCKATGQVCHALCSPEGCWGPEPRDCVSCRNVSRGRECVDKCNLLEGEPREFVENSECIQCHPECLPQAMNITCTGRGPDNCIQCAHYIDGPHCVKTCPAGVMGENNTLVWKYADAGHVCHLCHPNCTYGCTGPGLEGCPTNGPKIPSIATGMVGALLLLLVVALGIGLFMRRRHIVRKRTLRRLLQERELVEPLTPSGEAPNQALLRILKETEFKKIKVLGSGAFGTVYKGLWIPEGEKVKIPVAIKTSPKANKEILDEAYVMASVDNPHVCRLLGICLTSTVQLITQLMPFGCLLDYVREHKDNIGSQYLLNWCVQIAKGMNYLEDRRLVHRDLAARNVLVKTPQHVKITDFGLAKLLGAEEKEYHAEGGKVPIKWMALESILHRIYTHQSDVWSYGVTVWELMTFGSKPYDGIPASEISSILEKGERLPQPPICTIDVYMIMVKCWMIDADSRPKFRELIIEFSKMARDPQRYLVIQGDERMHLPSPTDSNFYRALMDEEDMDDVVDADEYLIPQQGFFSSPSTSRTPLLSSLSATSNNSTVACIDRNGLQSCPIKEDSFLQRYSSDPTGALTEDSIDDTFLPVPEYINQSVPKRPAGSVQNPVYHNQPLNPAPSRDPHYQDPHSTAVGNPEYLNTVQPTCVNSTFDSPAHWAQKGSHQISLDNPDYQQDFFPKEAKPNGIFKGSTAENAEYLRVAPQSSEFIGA
protocol_notes: Inhibitory Activity of Compounds Against EGFR Mutant Enzyme

### Prompt I am curious: what IC50 value has been reported for `CS(=O)(=O)Nc1c(Cl)cccc1Nc1nc(Cl)ncc1Cl` ?
### Response < 1 nM

### Prompt I am curious: what IC50 value has been reported for `CS(=O)(=O)n1ccc2cccc(Nc3nc(Cl)ncc3Cl)c21` ?
### Response < 1 nM

### Prompt I am curious: what IC50 value has been reported for `C=CC(=O)Nc1cc(Nc2ncc(Cl)c(Nc3cccc4c3N(S(C)(=O)=O)CC4)n2)c(OC)cc1N(C)CCN(C)C(=O)OC(C)(C)C` ?
### Response < 1 nM

### Prompt I am curious: what IC50 value has been reported for `C=CC(=O)Nc1cc(N)c(OC)cc1N(C)CCN(C)C(=O)OCc1ccccc1` ?
### Response < 1 nM

### Prompt I am curious: what IC50 value has been reported for `C=C(F)C(=O)Nc1cc(N)c(OC)cc1N(C)CCN(C)C` ?
### Response < 1 nM

### Prompt I am curious: what IC50 value has been reported for `COC(=O)c1cnc(Cl)nc1Nc1cccc2c1N(S(C)(=O)=O)CC2` ?
### Response < 1 nM
